- TESTED_SYSTEM: T1, active human C1s purified from human serum (CompTech, Tyler, TX, catalog number A104) (human, UniProt P09871 16-437; P09871 438-688)
- T1 construct: Serum-derived material, biotinylated for the ELISA; also called human active C1s; active C1s
- T1 sequence 1: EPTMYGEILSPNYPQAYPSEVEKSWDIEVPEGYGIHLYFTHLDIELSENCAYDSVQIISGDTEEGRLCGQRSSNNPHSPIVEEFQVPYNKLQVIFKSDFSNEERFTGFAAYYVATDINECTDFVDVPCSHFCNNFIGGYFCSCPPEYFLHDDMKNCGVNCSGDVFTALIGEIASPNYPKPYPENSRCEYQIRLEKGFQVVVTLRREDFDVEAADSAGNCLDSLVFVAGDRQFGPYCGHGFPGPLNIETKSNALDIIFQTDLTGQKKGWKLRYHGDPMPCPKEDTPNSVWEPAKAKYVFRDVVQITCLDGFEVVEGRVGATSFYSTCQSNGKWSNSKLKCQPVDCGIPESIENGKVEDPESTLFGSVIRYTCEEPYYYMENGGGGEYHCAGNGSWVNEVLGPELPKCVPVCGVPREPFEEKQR
- T1 sequence 2: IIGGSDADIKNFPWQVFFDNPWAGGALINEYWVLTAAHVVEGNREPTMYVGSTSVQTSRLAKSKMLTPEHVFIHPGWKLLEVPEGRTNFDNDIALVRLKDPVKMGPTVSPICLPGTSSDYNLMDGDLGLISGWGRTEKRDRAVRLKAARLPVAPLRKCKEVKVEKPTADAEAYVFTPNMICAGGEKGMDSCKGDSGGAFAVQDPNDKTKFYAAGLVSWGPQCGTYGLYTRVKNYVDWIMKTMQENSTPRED
- MEASUREMENT_PROTOCOL: SPR, antibody captured via anti-human Fc, C1s in solution
So basically: koff at 0.0002 s⁻¹ or higher? That is YES. Lower than 0.0002 s⁻¹? That is NO.

| BINDER | ASSIGNED_CLASS |
| --- | --- |
| MAB25 (antibody, V domains shown, IgG) VH: EVQLVESGGGVVRPGGSLRLSCAASGFTFDDYGMSWVRQAPGKGLEWVSGINWEGGSTGYADSVKGRFTISRDNAKNSLYLQMNSLRAEDTALYYCARDEQLGGIKYYYYYMDVWGKGTTVTVSS VL: DIQMTQSPSSLSASVGDRVTITCRASQGIRNDLGWYQQKPGKAPKRLIYTASNLQSGVPSRFSGSGSGTEFTLTISSLQPEDFATYYCLQYKQYPLTFGGGTKVEIK | YES |
| MAB4 (antibody, V domains shown, The IgG4 YTE form is entered separately as IgG4-MAB4) VH: QVQLVESGGGLVKPGGSLRLSCAASGFTFSDYYMSWIRQAPGKGLEWVSYISRSGSTKYYADSVKGRFTISRDNAKNSLYLQMNSLRAEDTAVYYCARDESQYALDYWGQGTLVTVSS VL: DIQMTQSPSSLSASVGDRVTITCQASQDISNYLNWYQQKPGKAPKLLIYDASNLETGVPSRFSGSGSGTDFTFTISSLQPEDIATYYCHQYEDYPLTFGGGTKVEIK | YES |
| MAB9 (antibody, V domains shown, The IgG4 YTE form is entered separately as IgG4-MAB9) VH: QVQLVESGGGLVKPGGSLRLSCAASGFTFSDYYMSWIRQAPGKGLEWVSYISRSGSTKYYADSVKGRFTISRDNAKNSLYLQMNSLRAEDTAVYYCARDENYALDWWGQGTLVTVSS VL: DIQMTQSPSSLSASVGDRVTITCQASQDISNYLNWYQQKPGKAPKLLIYDASNLETGVPSRFSGSGSGTDFTFTISSLQPEDIATYYCQHYEDYPLTFGGGTKVEIK | NO |
| MAB7 (antibody, V domains shown, IgG) VH: QVQLVESGGGLVKPGGSLRLSCAASGFTFSDYYMSWIRQAPGKGLEWVSYISRSGSTKYYADSVKGRFTISRDNAKNSLYLQMNSLRAEDTAVYYCARDETDYAYDNWGQGTLVTVSS VL: DIQMTQSPSSLSASVGDRVTITCQASQDISNYLNWYQQKPGKAPKLLIYDASNLETGVPSRFSGSGSGTDFTFTISSLQPEDIATYYCQQYEDYPLVFGGGTKVEIK | YES |
| MAB2 (antibody, V domains shown, IgG) VH: QVQLVESGGGLVKPGGSLRLSCAASGFTFSDYYMSWIRQAPGKGLEWVSYISRSGSTKYYADSVKGRFTISRDNAKNSLYLQMNSLRAEDTAVYYCARDETDYGWDYWGQGTLVTVSS VL: DIQMTQSPSSLSASVGDRVTITCQASQDISNYLNWYQQKPGKAPKLLIYDASNLETGVPSRFSGSGSGTDFTFTISSLQPEDIATYYCKQYEDYPLTFGGGTKVEIK | YES |
